Examples of molecules with documented inhibition at 10 µM follow.
# system_name: 5-lipoxygenase (Homo sapiens)
# Construct: the 5-LO activity in human whole blood; from tissue; host or cells: heparinized human whole blood
# Sequence (P09917 1-674): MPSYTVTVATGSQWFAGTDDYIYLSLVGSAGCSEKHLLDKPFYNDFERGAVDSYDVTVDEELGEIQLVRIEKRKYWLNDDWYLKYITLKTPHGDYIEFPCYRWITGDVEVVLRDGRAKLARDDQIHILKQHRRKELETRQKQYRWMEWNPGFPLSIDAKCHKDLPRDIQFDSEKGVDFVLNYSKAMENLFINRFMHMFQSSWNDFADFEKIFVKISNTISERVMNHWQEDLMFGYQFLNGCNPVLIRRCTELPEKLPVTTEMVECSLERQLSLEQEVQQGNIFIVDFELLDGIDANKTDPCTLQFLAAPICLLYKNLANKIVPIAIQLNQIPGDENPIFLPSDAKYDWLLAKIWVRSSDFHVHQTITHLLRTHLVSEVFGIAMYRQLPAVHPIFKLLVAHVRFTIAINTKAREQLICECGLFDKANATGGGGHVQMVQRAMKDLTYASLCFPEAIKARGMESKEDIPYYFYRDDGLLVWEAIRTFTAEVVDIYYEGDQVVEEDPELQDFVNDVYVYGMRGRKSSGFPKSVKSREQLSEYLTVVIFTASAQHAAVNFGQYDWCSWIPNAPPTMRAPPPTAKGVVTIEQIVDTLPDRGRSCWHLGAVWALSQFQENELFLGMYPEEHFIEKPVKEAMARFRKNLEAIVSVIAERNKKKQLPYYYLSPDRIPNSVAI
# assay_comment: 5-lipoxygenase inhibition in human blood (LTB4 formation)
# Format: cell-based
# reported_conditions: 0.5 h; 10^-5 mole/liter; human whole blood, 37° C.; read-out: In vitro % inhibitory activity on LTB4 formation in human blood stimulated by calcimycin
Please reply with the bare figure in % and do not write the unit itself.

Field: example entries. Status: answers known.
molecule	observed_result
Cc1cc(-c2c(C)c3c(O)ccc4c3n2CC(CCC(=O)N2CCN(c3ccccn3)CC2)O4)cc(C)c1O (stereo not drawn)	100
Cc1ccnc(N2CCN(C(=O)CCC3Cn4c(-c5cc(C)c(O)c(C)c5)c(C)c5c(O)ccc(c54)O3)CC2)c1 (stereo not drawn)	100
Cc1cccnc1N1CCN(CCCC2Cn3c(-c4cc(C)c(O)c(C)c4)c(C)c4c(O)ccc(c43)O2)CC1 (stereo not drawn)	100
Cc1cccnc1N1CCN(CCCC2Cn3c(-c4ccc(O)cc4)c(C)c4cccc(c43)O2)CC1 (stereo not drawn)	100
Cc1ccnc(N2CCN(CCCC3Cn4c(-c5cc(C)c(O)c(C)c5)c(C)c5c(O)ccc(c54)O3)CC2)c1 (stereo not drawn)	100
Cc1ccnc(N2CCN(CCC3Cn4c(-c5ccc(O)cc5)c(C)c5c(O)ccc(c54)O3)CC2)c1 (stereo not drawn)	86

Value of inhibition at 10 µM reported for the molecule Cc1cc(-c2c(C)c3c(OCc4ccccc4)ccc4c3n2CC(CCC(=O)N2CCN(c3ccccn3)CC2)O4)cc(C)c1O (stereo not drawn) is 96

Value of inhibition at 10 µM reported for the molecule Cc1ccnc(N2CCN(C(=O)CCC3Cn4c(-c5ccc(O)cc5)c(C)c5c(O)ccc(c54)O3)CC2)c1 (stereo not drawn) is 95

Value of inhibition at 10 µM reported for the molecule COc1cc(-c2c(C)c3c(O)ccc4c3n2CC(CCC(=O)N2CCN(c3ccccn3)CC2)O4)cc(C)c1O (stereo not drawn) is 95
